- method.description: APR_HepG2_MitoticArrest_24hr: Apredica 24-hour HepG2 Assay for Mitotic Arrest (AID 2282910)
- assay.context: high-content imaging, actives raise or lower the signal
- Protocol: APR_HepG2_24hr is a cell-based, multiplexed-readout assay that uses HepG2, a human liver cell line, with measurements taken at 24 hours after chemical dosing in a 384-well plate.APR_HepG2_MitoticArrest_24hr is one of 10 assay component(s) measured or calculated from the APR_HepG2_24hr assay. […] This assay endpoint, APR_HepG2_MitoticArrest_24hr, was analyzed with bidirectional fitting relative to DMSO as the negative control and baseline of activity. […]
Active and inactive are the calls of the source. How the source made its calls: active means hit-call score of the fitted dose curve at least 0.9, where 1 is the maximum; inactive means score below 0.9.
Possible outcomes: 1 (yes) for active, 0 (no) for inactive

{"columns": ["molecule", "class"],
 "data": [
  ["CCCCC[C@H](O)CC(=O)CCc1ccc(O)c(OC)c1", "0 (no)"],
  ["NC(=O)N(O)[C@@H]1C=C[C@H](Oc2cccc(Oc3ccc(F)cc3)c2)C1", "0 (no)"],
  ["CCCCCCCCCCCCN1CCCC1=O", "1 (yes)"],
  ["CC#C[C@]1(O)CC[C@H]2[C@@H]3CCC4=CC(=O)CCC4=C3[C@@H](c3ccc(N(C)C)cc3)C[C@@]21C", "0 (no)"],
  ["CCC(C)(C)C1CCC(O)CC1 (stereo unspecified)", "0 (no)"],
  ["CCOC(=O)CC(O)(CC(=O)OCC)C(=O)OCC", "0 (no)"],
  ["c1ccc2c(c1)Cc1ccccc1-2", "0 (no)"],
  ["CCCOC(=O)c1ccc(O)cc1", "0 (no)"],
  ["C[C@@H]1C[C@H]2[C@@H]3CCC4=CC(=O)C=C[C@]4(C)[C@@]3(F)[C@@H](O)C[C@]2(C)[C@@]1(O)C(=O)COP(=O)(O)O", "1 (yes)"],
  ["CC(C)CCCCCCOC(=O)CCCCC(=O)OCCCCCCC(C)C", "0 (no)"],
  ["O=C(O)Cc1cc(I)c(Oc2cc(I)c(O)c(I)c2)c(I)c1", "0 (no)"],
  ["OCCC(F)(F)C(F)(F)C(F)(F)C(F)(F)C(F)(F)C(F)(F)F", "0 (no)"],
  ["CN1CCN(c2ccccc2/C=C2\\SCCN(c3ccc(Cl)c(Cl)c3)C2=O)CC1", "1 (yes)"],
  ["CCCOc1sc(C(=O)N2CCC(c3cc(CN)ccc3F)CC2)c(C)c1Br", "1 (yes)"],
  ["O=C(O)c1ccccc1C(c1ccc(O)cc1)c1ccc(O)cc1", "0 (no)"],
  ["OC1CCCCC1", "0 (no)"]
]}

====

- test.target: human Serotonin, 5-Hydroxytryptamine Receptor 7 (5HT7), HTR7 (gene 3363) (UniProt P34969)
- Sequence (P34969 whole entry, looked up): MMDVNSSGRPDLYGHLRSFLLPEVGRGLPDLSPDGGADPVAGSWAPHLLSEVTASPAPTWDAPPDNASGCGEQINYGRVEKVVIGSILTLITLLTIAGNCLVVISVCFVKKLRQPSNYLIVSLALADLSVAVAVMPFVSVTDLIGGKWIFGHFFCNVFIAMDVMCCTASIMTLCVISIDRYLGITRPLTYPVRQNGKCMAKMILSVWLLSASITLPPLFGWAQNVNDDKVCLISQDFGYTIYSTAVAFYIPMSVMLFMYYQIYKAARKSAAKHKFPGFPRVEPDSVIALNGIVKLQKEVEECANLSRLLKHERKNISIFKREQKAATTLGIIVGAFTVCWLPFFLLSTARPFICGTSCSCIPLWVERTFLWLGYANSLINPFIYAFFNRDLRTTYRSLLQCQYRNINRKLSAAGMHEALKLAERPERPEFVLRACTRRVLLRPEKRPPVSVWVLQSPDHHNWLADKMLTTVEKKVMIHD
- method.description: NVS_GPCR_h5HT7: NovaScreen (NVS) G Protein-Coupled Receptor Assay for human Serotonin, 5-Hydroxytryptamine Receptor 7 (5HT7) (AID 2283255);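 further: hits reduce specific radioligand binding relative to DMSO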
Records with an inconclusive call do not appear. Activity calls are given as the source filed them. The calls were made as follows: active = hit-call score of the fitted dose curve at least 0.9, where 1 is the maximum; inconclusive = response in the unintended direction; inactive = score below 0.9.
Possible outcomes: active, inactive

{"columns": ["compound", "class"],
 "data": [
  ["NC(=O)N1C(=O)C(C(=O)c2cc(Cl)cs2)c2cc(F)c(Cl)cc21 (configuration not stated)", "inactive"],
  ["CCCCCCCCCCCCc1ccccc1S(=O)(=O)O", "active"],
  ["CC#C[C@]1(O)CC[C@H]2[C@@H]3CCC4=CC(=O)CCC4=C3[C@@H](c3ccc(N(C)C)cc3)C[C@@]21C", "active"],
  ["CCCOc1sc(C(=O)N2CCC(c3cc(CN)ccc3F)CC2)c(C)c1Br", "active"],
  ["CC(=O)NC1(c2cccc(F)c2)CCN(CC[C@@]2(c3ccc(Cl)c(Cl)c3)CN(c3ccccc3)C(=O)CO2)CC1", "active"],
  ["CCN(CC)CCNc1ccc(CNC=O)c2sc3ccc(OC)cc3c(=O)c12", "inactive"],
  ["Oc1cccc(O)c1", "inactive"]
]}
